Data provenance is BigSolDB 2.1.

- CONDITION SUMMARY: in n-butanol, 298.2 K
OUTCOME MEASURE: solubility (mole fraction)

SUBSTANCE SMILES	NUMERIC VALUE
C=C1CC[C@H](O)C/C1=C/C=C1\CCC[C@]2(C)[C@@H]([C@H](C)CCCC(C)C)CC[C@@H]12	0.169

====

- CONDITION SUMMARY: in ethanol, 298.2 K
OUTCOME MEASURE: solubility (mole fraction)

SUBSTANCE SMILES	NUMERIC VALUE
C=C1CC[C@H](O)C/C1=C/C=C1\CCC[C@]2(C)[C@@H]([C@H](C)CCCC(C)C)CC[C@@H]12	0.177

====

- CONDITION SUMMARY: in ethylene glycol, 288.2 K

SUBSTANCE SMILES	solubility (mole fraction)
C=C1CC[C@H](O)C/C1=C/C=C1\CCC[C@]2(C)[C@@H]([C@H](C)CCCC(C)C)CC[C@@H]12	0.000318

====

- CONDITION SUMMARY: in DMSO, 273.2 K
OUTCOME MEASURE: solubility (mole fraction)

SUBSTANCE SMILES	NUMERIC VALUE
C=C1CC[C@H](O)C/C1=C/C=C1\CCC[C@]2(C)[C@@H]([C@H](C)CCCC(C)C)CC[C@@H]12	0.0041

====

- CONDITION SUMMARY: in isopropanol, 298.2 K

SUBSTANCE SMILES	solubility (mole fraction)
C=C1CC[C@H](O)C/C1=C/C=C1\CCC[C@]2(C)[C@@H]([C@H](C)CCCC(C)C)CC[C@@H]12	0.245

====

- CONDITION SUMMARY: in transcutol, 283.2 K

SUBSTANCE SMILES	solubility (mole fraction)
C=C1CC[C@H](O)C/C1=C/C=C1\CCC[C@]2(C)[C@@H]([C@H](C)CCCC(C)C)CC[C@@H]12	0.382

====

- CONDITION SUMMARY: in ethyl acetate, 288.2 K

SUBSTANCE SMILES	solubility (mole fraction)
C=C1CC[C@H](O)C/C1=C/C=C1\CCC[C@]2(C)[C@@H]([C@H](C)CCCC(C)C)CC[C@@H]12	0.15

====

- CONDITION SUMMARY: in isopropanol, 278.2 K
OUTCOME MEASURE: solubility (mole fraction)

SUBSTANCE SMILES	OUTCOME MEASURE	NUMERIC VALUE
C=C1CC[C@H](O)C/C1=C/C=C1\CCC[C@]2(C)[C@@H]([C@H](C)CCCC(C)C)CC[C@@H]12	solubility (mole fraction)	0.202

====

- CONDITION SUMMARY: in sec-butanol, 273.2 K

SUBSTANCE SMILES	solubility (mole fraction)
C=C1CC[C@H](O)C/C1=C/C=C1\CCC[C@]2(C)[C@@H]([C@H](C)CCCC(C)C)CC[C@@H]12	0.154

====

- CONDITION SUMMARY: in PEG-400, 298.2 K

SUBSTANCE SMILES	solubility (mole fraction)
C=C1CC[C@H](O)C/C1=C/C=C1\CCC[C@]2(C)[C@@H]([C@H](C)CCCC(C)C)CC[C@@H]12	0.0291

====

- CONDITION SUMMARY: in sec-butanol, 283.2 K

SUBSTANCE SMILES	solubility (mole fraction)
C=C1CC[C@H](O)C/C1=C/C=C1\CCC[C@]2(C)[C@@H]([C@H](C)CCCC(C)C)CC[C@@H]12	0.168
